target_desc: Neuronal acetylcholine receptor; alpha4/beta2 (Homo sapiens, UniProt P17787+P43681)
Sequence (P17787 whole entry): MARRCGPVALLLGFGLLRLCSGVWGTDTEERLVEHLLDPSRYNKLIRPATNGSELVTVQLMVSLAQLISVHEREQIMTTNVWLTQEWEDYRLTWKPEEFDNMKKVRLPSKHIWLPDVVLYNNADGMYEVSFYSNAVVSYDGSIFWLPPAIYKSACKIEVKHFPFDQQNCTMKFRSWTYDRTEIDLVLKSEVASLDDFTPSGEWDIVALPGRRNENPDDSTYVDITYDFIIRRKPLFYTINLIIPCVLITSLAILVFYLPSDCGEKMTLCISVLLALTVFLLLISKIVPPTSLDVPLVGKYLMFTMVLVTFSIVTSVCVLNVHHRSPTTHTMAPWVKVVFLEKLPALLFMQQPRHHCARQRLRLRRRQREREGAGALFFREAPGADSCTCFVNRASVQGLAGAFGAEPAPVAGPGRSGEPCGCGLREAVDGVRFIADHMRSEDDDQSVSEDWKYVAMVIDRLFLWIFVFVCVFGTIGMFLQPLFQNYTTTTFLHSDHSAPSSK
Sequence (P43681 whole entry): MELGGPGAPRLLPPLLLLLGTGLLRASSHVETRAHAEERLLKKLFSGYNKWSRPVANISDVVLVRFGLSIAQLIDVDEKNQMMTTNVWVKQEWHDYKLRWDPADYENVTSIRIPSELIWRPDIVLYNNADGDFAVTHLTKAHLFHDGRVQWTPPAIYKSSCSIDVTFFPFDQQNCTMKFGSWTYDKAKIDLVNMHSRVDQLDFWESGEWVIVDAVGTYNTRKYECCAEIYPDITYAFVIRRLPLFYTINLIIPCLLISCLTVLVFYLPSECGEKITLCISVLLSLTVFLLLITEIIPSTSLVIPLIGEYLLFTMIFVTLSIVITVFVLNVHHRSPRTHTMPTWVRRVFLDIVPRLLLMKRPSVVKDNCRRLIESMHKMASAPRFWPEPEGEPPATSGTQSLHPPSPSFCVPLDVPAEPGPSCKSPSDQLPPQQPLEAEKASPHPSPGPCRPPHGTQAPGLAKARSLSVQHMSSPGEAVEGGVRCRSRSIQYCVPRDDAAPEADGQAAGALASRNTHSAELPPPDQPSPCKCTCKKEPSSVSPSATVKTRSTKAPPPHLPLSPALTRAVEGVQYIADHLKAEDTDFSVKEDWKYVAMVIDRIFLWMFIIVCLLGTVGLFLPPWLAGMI
procedure_summary: Displacement of [3H]epibatidine from alpha4beta2 nicotinic receptor expressed in human HEK293 cells
Format: cell-based
cond: read-out: Ki
Ki listing for selected compounds.
The reply should be a number in nM, with the unit left off.

# count of solved cases: 2
compound: COc1ccncc1-c1ccccc1O[C@H]1C[C@@H]2CNC[C@H]1C2.Cl (racemic)
Ki, nM: 477

compound: Cl.Oc1cncc(-c2ccccc2O[C@@H]2C[C@H]3CNC[C@@H]2C3)c1
Ki, nM: 149

Let us examine a further case.
Per the records, this compound ( CS(=O)(=O)Nc1cncc(-c2ccccc2O[C@@H]2C[C@H]3CNC[C@@H]2C3)c1.Cl ) has Ki equal to 2900

###

target_desc: Neuronal acetylcholine receptor; alpha3/beta4 (Homo sapiens, UniProt P30926+P32297)
Sequence (P30926 whole entry): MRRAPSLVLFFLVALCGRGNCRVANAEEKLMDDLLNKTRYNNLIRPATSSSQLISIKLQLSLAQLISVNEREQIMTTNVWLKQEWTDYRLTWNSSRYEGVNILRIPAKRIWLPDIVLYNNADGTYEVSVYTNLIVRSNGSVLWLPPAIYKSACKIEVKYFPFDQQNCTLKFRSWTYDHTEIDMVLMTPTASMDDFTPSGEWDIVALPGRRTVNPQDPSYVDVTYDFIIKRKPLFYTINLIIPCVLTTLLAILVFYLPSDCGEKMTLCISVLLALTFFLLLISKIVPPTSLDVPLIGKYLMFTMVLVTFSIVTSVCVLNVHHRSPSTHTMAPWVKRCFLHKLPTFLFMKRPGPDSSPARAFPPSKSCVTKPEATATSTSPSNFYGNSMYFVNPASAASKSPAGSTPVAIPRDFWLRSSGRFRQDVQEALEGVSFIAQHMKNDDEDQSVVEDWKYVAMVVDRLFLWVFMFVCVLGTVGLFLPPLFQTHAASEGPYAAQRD
Sequence (P32297 whole entry): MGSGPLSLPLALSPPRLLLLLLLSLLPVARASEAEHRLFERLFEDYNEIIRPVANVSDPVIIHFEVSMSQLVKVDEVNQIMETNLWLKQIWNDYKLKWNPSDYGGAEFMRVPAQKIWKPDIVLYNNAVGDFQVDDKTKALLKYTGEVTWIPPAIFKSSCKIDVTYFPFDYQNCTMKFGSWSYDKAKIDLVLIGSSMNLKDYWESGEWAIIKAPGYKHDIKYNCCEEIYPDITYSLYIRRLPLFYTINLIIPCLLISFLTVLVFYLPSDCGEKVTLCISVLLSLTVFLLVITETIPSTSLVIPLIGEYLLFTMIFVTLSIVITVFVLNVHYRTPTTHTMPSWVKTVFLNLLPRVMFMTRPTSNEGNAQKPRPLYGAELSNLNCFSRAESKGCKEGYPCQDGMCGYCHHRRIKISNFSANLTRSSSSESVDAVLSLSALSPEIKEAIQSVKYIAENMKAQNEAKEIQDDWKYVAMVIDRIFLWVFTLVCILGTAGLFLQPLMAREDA
procedure_summary: Agonist activity at alpha3beta4 nicotinic receptor expressed in human HEK cells assessed as intracellular calcium efflux by FLIPR
Mark MET only when EC50 stays strictly below 3 nM. Values equal to the cut-off are NOT MET.

Before answering, review these 4 worked examples.
molecule: Cl.Oc1cncc(-c2ccccc2O[C@H]2C[C@@H]3CNC[C@H]2C3)c1 (racemic)
group: MET
--
molecule: Cl.Oc1ccncc1-c1ccccc1O[C@H]1C[C@@H]2CNC[C@H]1C2 (racemic)
group: NOT MET
--
molecule: Cl.NC(=O)c1cncc(-c2ccccc2O[C@H]2C[C@@H]3CNC[C@H]2C3)c1 (stereo in doubt)
group: NOT MET
--
molecule: CCS(=O)(=O)Nc1cncc(-c2ccccc2O[C@H]2C[C@@H]3CNC[C@H]2C3)c1.Cl (racemic)
group: MET

In plain terms, does Cl.c1cncc(-c2ccccc2O[C@H]2C[C@@H]3CNC[C@H]2C3)c1 (racemic) come in under 3 nM for EC50?
NOT MET

In plain terms, does Cl.Nc1cncc(-c2ccccc2O[C@H]2C[C@@H]3CNC[C@H]2C3)c1 (racemic) come in under 3 nM for EC50?
NOT MET

In plain terms, does CC(C)S(=O)(=O)Nc1cncc(-c2ccccc2O[C@H]2C[C@@H]3CNC[C@H]2C3)c1.Cl (racemic) come in under 3 nM for EC50?
MET

In plain terms, does CS(=O)(=O)Nc1ccncc1-c1ccccc1O[C@H]1C[C@@H]2CNC[C@H]1C2.Cl (racemic) come in under 3 nM for EC50?
NOT MET

###

procedure_summary: Apparent permeability from apical to basolateral side of MDCK cells
Format: ADME, cell-based, Canis lupus familiaris
cond: dog
Mark true (1) only when Papp A→B stays strictly below 10 ×10⁻⁶ cm/s. Values equal to the cut-off are false (0).

Before answering, review these 5 worked examples.
compound: CCS(=O)(=O)Nc1cncc(-c2ccccc2O[C@H]2C[C@@H]3CNC[C@H]2C3)c1.Cl (racemic)
group: true (1)

compound: CS(=O)(=O)Nc1cncc(-c2ccccc2O[C@@H]2C[C@H]3CNC[C@@H]2C3)c1.Cl
group: true (1)

compound: CS(=O)(=O)Nc1cncc(-c2ccccc2O[C@H]2C[C@@H]3CNC[C@H]2C3)c1.Cl
group: true (1)

compound: Cl.c1cncc(-c2ccccc2O[C@H]2C[C@@H]3CNC[C@H]2C3)c1 (racemic)
group: false (0)

compound: Cl.Oc1cncc(-c2ccccc2O[C@@H]2C[C@H]3CNC[C@@H]2C3)c1
group: true (1)

In plain terms, does CC(C)S(=O)(=O)Nc1cncc(-c2ccccc2O[C@H]2C[C@@H]3CNC[C@H]2C3)c1.Cl (racemic) come in under 10 ×10⁻⁶ cm/s for Papp A→B?
true (1)

In plain terms, does COc1cncc(-c2ccccc2O[C@H]2C[C@@H]3CNC[C@H]2C3)c1.Cl (racemic) come in under 10 ×10⁻⁶ cm/s for Papp A→B?
false (0)

In plain terms, does Cl.Fc1ccncc1-c1ccccc1O[C@H]1C[C@@H]2CNC[C@H]1C2 (racemic) come in under 10 ×10⁻⁶ cm/s for Papp A→B?
false (0)

In plain terms, does Cl.Oc1cncc(-c2ccccc2O[C@H]2C[C@@H]3CNC[C@H]2C3)c1 (racemic) come in under 10 ×10⁻⁶ cm/s for Papp A→B?
true (1)

###

Test system: human MDR (P-glycoprotein)
procedure_summary: Efflux ratio of permeability from basolateral to apical side over apical to basolateral side of MDCK cells expressing human MDR gene
Type: ADME, cell-based, Canis lupus familiaris
cond: dog, MDCK-MDR1
efflux ratio listing for selected molecules.
Reply with just the number.

molecule: Cl.Fc1cncc(-c2ccccc2O[C@H]2C[C@@H]3CNC[C@H]2C3)c1 (racemic)
efflux ratio: 1.29
--
molecule: Cl.Fc1ccncc1-c1ccccc1O[C@H]1C[C@@H]2CNC[C@H]1C2 (racemic)
efflux ratio: 1.26
--
molecule: Cl.Oc1cncc(-c2ccccc2O[C@@H]2C[C@H]3CNC[C@@H]2C3)c1
efflux ratio: 3.5

Let us examine a further case.
Summary line: COc1cncc(-c2ccccc2O[C@H]2C[C@@H]3CNC[C@H]2C3)c1.Cl (racemic) , human MDR (P-glycoprotein), reported efflux ratio = 1.76

###

target_desc: Neuronal acetylcholine receptor; alpha3/beta4 (Homo sapiens, UniProt P30926+P32297)
procedure_summary: Agonist activity at alpha3beta4 nicotinic receptor expressed in human HEK cells assessed as intracellular calcium efflux by FLIPR
assay_endpoint: EC50

# count of solved cases: 3
compound: CS(=O)(=O)Nc1cncc(-c2ccccc2O[C@H]2C[C@@H]3CNC[C@H]2C3)c1.Cl (racemic)
result: 2.99 nM
//
compound: Cl.c1cncc(-c2ccccc2O[C@H]2C[C@@H]3CNC[C@H]2C3)c1
result: < 100 nM
//
compound: CC(=O)Nc1cncc(-c2ccccc2O[C@H]2C[C@@H]3CNC[C@H]2C3)c1.Cl (racemic)
result: 252 nM

Let us examine a further case.
Per the records, this compound ( Cl.Fc1cncc(-c2ccccc2O[C@H]2C[C@@H]3CNC[C@H]2C3)c1 (racemic) ) has EC50 equal to 316 nM

###

target_desc: Voltage-gated inwardly rectifying potassium channel KCNH2 (Homo sapiens, UniProt Q12809)
procedure_summary: Displacement of [3H]dofetilide from human ERG expressed in HEK293 cells
Assay type: cell-based
cond: read-out: Ki
Ki listing for selected compounds.
The reply should be a number in nM, with the unit left off.

compound: Cl.c1cncc(-c2ccccc2O[C@H]2C[C@@H]3CNC[C@H]2C3)c1 (racemic)
target_desc: Voltage-gated inwardly rectifying potassium channel KCNH2 (Homo sapiens, UniProt Q12809)
Ki [nM]: 2160

Per the records, this compound ( Cl.Oc1cncc(-c2ccccc2O[C@H]2C[C@@H]3CNC[C@H]2C3)c1 (racemic) ) has Ki equal to 1580

###

target_desc: Neuronal acetylcholine receptor; alpha3/beta4 (Homo sapiens, UniProt P30926+P32297)
procedure_summary: Agonist activity at alpha3beta4 nicotinic receptor expressed in human HEK cells assessed as intracellular calcium […] by FLIPR relative to control
Type: functional, cell-based
cond: HEK293
Use 50% as the dividing line for Efficacy, with the line itself on the rule met side and lower values as rule not met.

Before answering, review these 5 worked examples.
compound: Cl.Oc1cncc(-c2ccccc2O[C@@H]2C[C@H]3CNC[C@@H]2C3)c1
target_desc: Neuronal acetylcholine receptor; alpha3/beta4 (Homo sapiens, UniProt P30926+P32297)
group: rule met

compound: c1cncc(-c2ccccc2O[C@H]2C[C@@H]3CNC[C@H]2C3)c1 (racemic)
target_desc: Neuronal acetylcholine receptor; alpha3/beta4 (Homo sapiens, UniProt P30926+P32297)
group: rule not met

compound: COc1cncc(-c2ccccc2O[C@H]2C[C@@H]3CNC[C@H]2C3)c1.Cl (racemic)
target_desc: Neuronal acetylcholine receptor; alpha3/beta4 (Homo sapiens, UniProt P30926+P32297)
group: rule not met

compound: Cl.Fc1ccncc1-c1ccccc1O[C@H]1C[C@@H]2CNC[C@H]1C2 (racemic)
target_desc: Neuronal acetylcholine receptor; alpha3/beta4 (Homo sapiens, UniProt P30926+P32297)
group: rule met

compound: Cl.Nc1ccncc1-c1ccccc1O[C@H]1C[C@@H]2CNC[C@H]1C2 (racemic)
target_desc: Neuronal acetylcholine receptor; alpha3/beta4 (Homo sapiens, UniProt P30926+P32297)
group: rule met

Given Oc1cncc(-c2ccccc2O[C@H]2C[C@@H]3CNC[C@H]2C3)c1 (racemic) , state whether its Efficacy is at least 50%.
rule met

Given Oc1cncc(-c2ccccc2O[C@H]2C[C@@H]3CNC[C@H]2C3)c1 , state whether its Efficacy is at least 50%.
rule met

Given CC(C)S(=O)(=O)Nc1cncc(-c2ccccc2O[C@H]2C[C@@H]3CNC[C@H]2C3)c1.Cl (racemic) , state whether its Efficacy is at least 50%.
rule met

###

target_desc: Acetylcholine receptor; alpha1/beta1/delta/gamma (Homo sapiens, UniProt P02708+P07510+P11230+Q07001)
Sequence (P02708 whole entry): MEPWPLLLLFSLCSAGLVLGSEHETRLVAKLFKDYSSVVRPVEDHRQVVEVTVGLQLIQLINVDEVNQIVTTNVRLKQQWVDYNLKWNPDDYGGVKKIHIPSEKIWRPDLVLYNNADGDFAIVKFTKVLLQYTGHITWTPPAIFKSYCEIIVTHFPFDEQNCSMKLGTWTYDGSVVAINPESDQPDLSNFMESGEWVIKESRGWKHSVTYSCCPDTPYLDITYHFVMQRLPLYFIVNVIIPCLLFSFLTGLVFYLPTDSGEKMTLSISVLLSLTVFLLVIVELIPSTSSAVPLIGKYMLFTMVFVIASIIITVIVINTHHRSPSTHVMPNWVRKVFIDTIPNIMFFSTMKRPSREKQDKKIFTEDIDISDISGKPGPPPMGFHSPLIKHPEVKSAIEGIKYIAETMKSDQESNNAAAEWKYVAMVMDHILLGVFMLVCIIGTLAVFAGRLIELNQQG
Sequence (P07510 whole entry): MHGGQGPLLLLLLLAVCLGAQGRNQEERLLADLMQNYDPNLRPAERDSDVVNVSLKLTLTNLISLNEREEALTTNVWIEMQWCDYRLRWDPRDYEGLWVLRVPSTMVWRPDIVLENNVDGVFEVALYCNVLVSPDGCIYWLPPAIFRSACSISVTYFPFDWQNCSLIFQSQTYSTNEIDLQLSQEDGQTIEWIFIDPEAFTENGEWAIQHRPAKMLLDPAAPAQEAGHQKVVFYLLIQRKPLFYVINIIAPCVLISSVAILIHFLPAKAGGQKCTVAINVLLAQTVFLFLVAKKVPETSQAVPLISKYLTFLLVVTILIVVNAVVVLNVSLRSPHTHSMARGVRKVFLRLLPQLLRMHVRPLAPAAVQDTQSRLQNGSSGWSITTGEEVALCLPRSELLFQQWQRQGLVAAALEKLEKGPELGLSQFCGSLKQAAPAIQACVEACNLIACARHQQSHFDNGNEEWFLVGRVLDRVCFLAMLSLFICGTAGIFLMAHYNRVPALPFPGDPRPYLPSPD
Sequence (P11230 whole entry): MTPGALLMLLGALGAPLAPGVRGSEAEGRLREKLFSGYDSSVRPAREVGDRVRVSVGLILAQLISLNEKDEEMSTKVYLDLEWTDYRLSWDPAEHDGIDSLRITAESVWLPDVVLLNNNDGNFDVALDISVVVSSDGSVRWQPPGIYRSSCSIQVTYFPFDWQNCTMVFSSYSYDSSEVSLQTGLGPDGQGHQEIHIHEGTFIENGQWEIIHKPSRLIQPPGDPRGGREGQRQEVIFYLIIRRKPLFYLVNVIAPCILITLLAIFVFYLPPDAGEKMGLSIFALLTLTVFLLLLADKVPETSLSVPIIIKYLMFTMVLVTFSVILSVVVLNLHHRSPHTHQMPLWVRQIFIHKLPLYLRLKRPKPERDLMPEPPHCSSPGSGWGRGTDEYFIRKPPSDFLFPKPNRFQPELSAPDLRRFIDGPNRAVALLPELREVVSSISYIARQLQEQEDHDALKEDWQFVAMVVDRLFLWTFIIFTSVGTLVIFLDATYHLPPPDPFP
Sequence (Q07001 whole entry): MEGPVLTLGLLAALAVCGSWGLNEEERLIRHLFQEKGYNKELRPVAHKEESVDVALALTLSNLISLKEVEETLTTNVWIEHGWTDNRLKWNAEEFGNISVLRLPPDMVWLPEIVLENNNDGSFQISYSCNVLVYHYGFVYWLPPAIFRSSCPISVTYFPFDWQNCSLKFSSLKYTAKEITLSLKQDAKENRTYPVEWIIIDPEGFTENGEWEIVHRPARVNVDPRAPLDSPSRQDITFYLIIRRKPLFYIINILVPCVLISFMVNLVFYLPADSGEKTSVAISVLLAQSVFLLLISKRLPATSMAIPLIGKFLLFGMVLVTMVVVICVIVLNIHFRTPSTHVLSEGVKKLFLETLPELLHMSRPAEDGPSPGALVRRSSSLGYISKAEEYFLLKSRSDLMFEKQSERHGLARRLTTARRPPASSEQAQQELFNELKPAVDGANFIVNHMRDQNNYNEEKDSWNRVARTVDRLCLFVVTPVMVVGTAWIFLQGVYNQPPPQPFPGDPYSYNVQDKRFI
procedure_summary: Binding affinity to alpha-1-beta-gamma-delta nicotinic receptor
assay_endpoint: Ki (µM)
The reply should be a number in µM, with the unit left off.

compound: CN1CCC[C@H]1c1cccnc1 [NICOTINE]
Ki, µM: 1.48

compound: c1cnc2cc3c(cc2n1)[C@@H]1CNC[C@H]3C1 [VARENICLINE]
Ki, µM: 8.2

Let us examine a further case.
Per the records, this compound ( Cl.Oc1cncc(-c2ccccc2O[C@H]2C[C@@H]3CNC[C@H]2C3)c1 (racemic) ) has Ki equal to 5

The values you see were collected from ChEMBL document CHEMBL1208792.
